Organism: Homo sapiens
ASSAY_NOTES: Selectivity ratio of EC50 for human recombinant kappa opioid receptor to EC50 for human recombinant delta opioid receptor
EXPERIMENTAL_ENDPOINT: Ratio EC50
Give bare numbers.

Example results:
* Oc1ccc2c(c1)[C@]13CCN(C[C@@H]4CCCO4)[C@H](C2)[C@]1(O)Cc1cc2ccccc2nc1C3 | 19.8
* C[C@@H](O)CN1CC[C@]23Cc4nc5ccccc5cc4C[C@@]2(O)[C@H]1Cc1ccc(O)cc13 | 38.9
* CCOCCN1CC[C@]23Cc4nc5ccccc5cc4C[C@@]2(O)[C@H]1Cc1ccc(O)cc13 | 53.5

Given the compound `CN1CC[C@]23Cc4nc5ccccc5cc4C[C@@]2(O)[C@H]1Cc1ccc(O)cc13` , what is its reported Ratio EC50?
929

* * *

Assignment: determine reported Emax for the given compounds.
TESTED_TARGET: Delta-type opioid receptor (Homo sapiens, UniProt P41143)
Sequence (P41143 whole entry): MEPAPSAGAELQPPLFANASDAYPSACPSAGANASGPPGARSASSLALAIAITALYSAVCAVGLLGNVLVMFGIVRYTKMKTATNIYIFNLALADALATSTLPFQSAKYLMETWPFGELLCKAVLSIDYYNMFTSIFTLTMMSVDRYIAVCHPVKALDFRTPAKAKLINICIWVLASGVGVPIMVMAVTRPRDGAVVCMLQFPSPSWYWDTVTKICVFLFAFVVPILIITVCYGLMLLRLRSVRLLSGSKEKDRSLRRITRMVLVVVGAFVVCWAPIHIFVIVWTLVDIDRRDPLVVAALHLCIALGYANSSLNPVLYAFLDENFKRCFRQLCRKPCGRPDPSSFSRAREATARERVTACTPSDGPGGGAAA
ASSAY_NOTES: Agonist activity at human recombinant delta opioid receptor expressed in CHO cells after 2 hrs by [35S]GTPgammaS binding assay relative to control
Format: functional, cell-based
Numbers only, in %.

Look over these answered cases.
* Oc1ccc2c(c1)[C@]13CCN(CCF)[C@H](C2)[C@]1(O)Cc1cc2ccccc2nc1C3 | 75.1
* C[C@H](O)CN1CC[C@]23Cc4nc5ccccc5cc4C[C@@]2(O)[C@H]1Cc1ccc(O)cc13 | 96.1
* Oc1ccc2c(c1)[C@]13CCN(CC(F)(F)F)[C@H](C2)[C@]1(O)Cc1cc2ccccc2nc1C3 | 43.8
* C[C@@H](O)CN1CC[C@]23Cc4nc5ccccc5cc4C[C@@]2(O)[C@H]1Cc1ccc(O)cc13 | 110
* Oc1ccc2c(c1)[C@]13CCN(Cc4ccco4)[C@H](C2)[C@]1(O)Cc1cc2ccccc2nc1C3 | 86.3

For every record below, what is its Emax?
1. CCCN1CC[C@]23Cc4nc5ccccc5cc4C[C@@]2(O)[C@H]1Cc1ccc(O)cc13
2. CCOCCCN1CC[C@]23Cc4nc5ccccc5cc4C[C@@]2(O)[C@H]1Cc1ccc(O)cc13
3. Oc1ccc2c(c1)[C@]13CCN(C[C@@H]4CCCO4)[C@H](C2)[C@]1(O)Cc1cc2ccccc2nc1C3

102
108
127

* * *

These records show Ki for Kappa-type opioid receptor (Cavia porcellus).
One number for each entry, in nM.

Here are 7 molecules together with their reported answers.
• CCN1CC[C@]23Cc4nc5ccccc5cc4C[C@@]2(O)[C@H]1Cc1ccc(O)cc13 = 59.4
• OCCN1CC[C@]23Cc4nc5ccccc5cc4C[C@@]2(O)[C@H]1Cc1ccc(O)cc13 = 59.5
• COCCCCN1CC[C@]23Cc4nc5ccccc5cc4C[C@@]2(O)[C@H]1Cc1ccc(O)cc13 = 402
• C[C@@H](O)CN1CC[C@]23Cc4nc5ccccc5cc4C[C@@]2(O)[C@H]1Cc1ccc(O)cc13 = 2.55
• CCOCCCN1CC[C@]23Cc4nc5ccccc5cc4C[C@@]2(O)[C@H]1Cc1ccc(O)cc13 = 754
• Oc1ccc2c(c1)[C@]13CCN(Cc4ccoc4)[C@H](C2)[C@]1(O)Cc1cc2ccccc2nc1C3 = 8.38
• Oc1ccc2c(c1)[C@]13CCN(CC(F)F)[C@H](C2)[C@]1(O)Cc1cc2ccccc2nc1C3 = 862

Hi! What's the reported Ki for `Oc1ccc2c(c1)[C@]13CCN(CC4(O)CC4)[C@H](C2)[C@]1(O)Cc1cc2ccccc2nc1C3` on Kappa-type opioid receptor (Cavia porcellus)?
0.725

* * *

Would you kindly list Ratio EC50 for each of these molecules?
Organism: Homo sapiens
ASSAY_NOTES: Selectivity ratio of EC50 for human recombinant mu opioid receptor to EC50 for human recombinant delta opioid receptor
Give bare numbers.

Sample records with Ratio EC50:
- CCOCCN1CC[C@]23Cc4nc5ccccc5cc4C[C@@]2(O)[C@H]1Cc1ccc(O)cc13: 80.1
- Oc1ccc2c(c1)[C@]13CCN(Cc4ccco4)[C@H](C2)[C@]1(O)Cc1cc2ccccc2nc1C3: 0.62

Now consider the entry below.
Need Ratio EC50, item `Oc1ccc2c(c1)[C@]13CCN(C[C@@H]4CCCO4)[C@H](C2)[C@]1(O)Cc1cc2ccccc2nc1C3`
11.3

* * *

TESTED_TARGET: Delta-type opioid receptor (Mus musculus, UniProt P32300)
Sequence (P32300 whole entry): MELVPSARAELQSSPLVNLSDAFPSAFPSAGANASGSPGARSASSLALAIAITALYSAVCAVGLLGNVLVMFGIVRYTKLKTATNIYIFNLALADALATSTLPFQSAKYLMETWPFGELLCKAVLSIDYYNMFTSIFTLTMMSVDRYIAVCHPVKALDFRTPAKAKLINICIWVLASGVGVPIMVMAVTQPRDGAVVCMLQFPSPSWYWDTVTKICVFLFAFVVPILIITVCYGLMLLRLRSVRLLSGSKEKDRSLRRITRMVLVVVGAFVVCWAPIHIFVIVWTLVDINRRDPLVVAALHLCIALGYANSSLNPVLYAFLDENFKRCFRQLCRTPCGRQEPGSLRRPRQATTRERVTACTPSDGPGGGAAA
ASSAY_NOTES: Displacement of [3H]-DPDPE from delta opioid receptor in mouse whole brain membranes without cerebellum after 1 hr by liquid scintillation counting analysis
Type: cell membranes, Membrane
Please go through the items and note down their Ki.
One number for each entry, in nM.

• Oc1ccc2c(c1)[C@]13CCN(CC4(O)CC4)[C@H](C2)[C@]1(O)Cc1cc2ccccc2nc1C3 = 0.208
• CCOCCN1CC[C@]23Cc4nc5ccccc5cc4C[C@@]2(O)[C@H]1Cc1ccc(O)cc13 = 0.224
• Oc1ccc2c(c1)[C@]13CCN(CC(F)F)[C@H](C2)[C@]1(O)Cc1cc2ccccc2nc1C3 = 1.11
• COCCCN1CC[C@]23Cc4nc5ccccc5cc4C[C@@]2(O)[C@H]1Cc1ccc(O)cc13 = 0.342

State recorded Ki for all listed compounds.
1. COCCN1CC[C@]23Cc4nc5ccccc5cc4C[C@@]2(O)[C@H]1Cc1ccc(O)cc13
2. CCN1CC[C@]23Cc4nc5ccccc5cc4C[C@@]2(O)[C@H]1Cc1ccc(O)cc13
3. Oc1ccc2c(c1)[C@]13CCN(CCF)[C@H](C2)[C@]1(O)Cc1cc2ccccc2nc1C3
4. CCCN1CC[C@]23Cc4nc5ccccc5cc4C[C@@]2(O)[C@H]1Cc1ccc(O)cc13

1. 0.244
2. 0.141
3. 0.213
4. 0.162

Dear colleague, could you send me Ki for each of the items below? Thanks.
1. OCCN1CC[C@]23Cc4nc5ccccc5cc4C[C@@]2(O)[C@H]1Cc1ccc(O)cc13
2. Oc1ccc2c(c1)[C@]13CCN(C[C@@H]4CCCO4)[C@H](C2)[C@]1(O)Cc1cc2ccccc2nc1C3
3. Oc1ccc2c(c1)[C@]13CCN(C[C@H]4CCCO4)[C@H](C2)[C@]1(O)Cc1cc2ccccc2nc1C3
4. Oc1ccc2c(c1)[C@]13CCN(Cc4ccoc4)[C@H](C2)[C@]1(O)Cc1cc2ccccc2nc1C3

0.314
0.257
0.38
0.324

Below are 6 compounds. Give each one its Ki.
1. C[C@H](O)CN1CC[C@]23Cc4nc5ccccc5cc4C[C@@]2(O)[C@H]1Cc1ccc(O)cc13
2. C[C@@H](O)CN1CC[C@]23Cc4nc5ccccc5cc4C[C@@]2(O)[C@H]1Cc1ccc(O)cc13
3. COCCCCN1CC[C@]23Cc4nc5ccccc5cc4C[C@@]2(O)[C@H]1Cc1ccc(O)cc13
4. Oc1ccc2c(c1)[C@]13CCN(CC(F)(F)F)[C@H](C2)[C@]1(O)Cc1cc2ccccc2nc1C3
5. CCOCCCN1CC[C@]23Cc4nc5ccccc5cc4C[C@@]2(O)[C@H]1Cc1ccc(O)cc13
6. Oc1ccc2c(c1)[C@]13CCN(Cc4ccco4)[C@H](C2)[C@]1(O)Cc1cc2ccccc2nc1C3

0.277
0.225
1.44
1.14
0.564
0.208

* * *

Species on record: Mus musculus
ASSAY_NOTES: Selectivity ratio of Ki for mu opioid receptor in mouse whole brain membranes without cerebellum to Ki for delta opioid receptor in mouse whole brain membranes without cerebellum
Format: cell membranes
Binning of Ratio Ki into classes: bottom range: < 200; center range: ≥ 200 and < 500; top range: ≥ 500

Examples with answers:
• C[C@@H](O)CN1CC[C@]23Cc4nc5ccccc5cc4C[C@@]2(O)[C@H]1Cc1ccc(O)cc13 = top range
• Oc1ccc2c(c1)[C@]13CCN(CCF)[C@H](C2)[C@]1(O)Cc1cc2ccccc2nc1C3 = top range
• COCCN1CC[C@]23Cc4nc5ccccc5cc4C[C@@]2(O)[C@H]1Cc1ccc(O)cc13 = center range
• OCCN1CC[C@]23Cc4nc5ccccc5cc4C[C@@]2(O)[C@H]1Cc1ccc(O)cc13 = center range
• Oc1ccc2c(c1)[C@]13CCN(C[C@@H]4CCCO4)[C@H](C2)[C@]1(O)Cc1cc2ccccc2nc1C3 = bottom range

Band for `Oc1ccc2c(c1)[C@]13CCN(CC4(O)CC4)[C@H](C2)[C@]1(O)Cc1cc2ccccc2nc1C3` ?
bottom range

What would you report for `COCCCN1CC[C@]23Cc4nc5ccccc5cc4C[C@@]2(O)[C@H]1Cc1ccc(O)cc13` ?
center range

`CCCN1CC[C@]23Cc4nc5ccccc5cc4C[C@@]2(O)[C@H]1Cc1ccc(O)cc13` ?
center range

`Oc1ccc2c(c1)[C@]13CCN(Cc4ccoc4)[C@H](C2)[C@]1(O)Cc1cc2ccccc2nc1C3` , same question.
center range

Same lookup for `Oc1ccc2c(c1)[C@]13CCN(Cc4ccco4)[C@H](C2)[C@]1(O)Cc1cc2ccccc2nc1C3` , please.
center range

Also `COCCCCN1CC[C@]23Cc4nc5ccccc5cc4C[C@@]2(O)[C@H]1Cc1ccc(O)cc13` , if possible.
bottom range
